Origin of values: ChEMBL document CHEMBL1132015

# assay.text: Inhibitory constant was determined against Protein tyrosine phosphatase (PTP) using the Kitz and Wilson method

{"structure": "O=C1C(CCl)=CS(=O)(=O)c2ccccc21", "units": "µM", "Ki": 3.5}
